- Test system: P388 leukemia ip, CD2F1 mice, survival T/C
- Procedure Summary: NCI In Vivo Anticancer Drug Screen. Data for tumor model P388 Leukemia (intraperitoneal) in CD2F1 (CDF1) mice
- Condition Info: endpoint: median survival time; dose: 12.5 mg/kg/injection; schedule: Q01DX009 (ip); vehicle: water; higher = longer survival
Inconclusive results and toxic doses are left out. Peptide text beside a SMILES is read from it.
Please provide measured T/C for the entries that follow.

Reported T/C ( CC(C)C(NC(=O)C(CCCN=C(N)N)NC(=O)C(N)CCCCN)C(N)=O (stereo not drawn) (H-Lys-Arg-Val-NH2; configuration not given here) ) = 105 % of control

Value of measured T/C for the entry COc1ccc(CCNC(C)Cc2ccc(OC)c(OC)c2)cc1OC (stereo unspecified) : 96 % of control

Sure, the documented T/C for CCOP(=O)(N=Nc1cccnc1)OCC is 112 % of control

Lab note: COc1cc2ccncc2cc1O gave T/C of 100 % of control

Quick note, T/C for NC(CCS(=O)(=O)NO)C(=O)O (stereo unspecified) landed at 89 % of control

Sure, the documented T/C for O=S(=O)(O)Nc1ccccc1 is 100 % of control
